Molecular target: human truncated cGAS enzyme (147-522 human cGAS) (Homo sapiens (Human), UniProt Q8N884)
Sequence (Q8N884 147-522): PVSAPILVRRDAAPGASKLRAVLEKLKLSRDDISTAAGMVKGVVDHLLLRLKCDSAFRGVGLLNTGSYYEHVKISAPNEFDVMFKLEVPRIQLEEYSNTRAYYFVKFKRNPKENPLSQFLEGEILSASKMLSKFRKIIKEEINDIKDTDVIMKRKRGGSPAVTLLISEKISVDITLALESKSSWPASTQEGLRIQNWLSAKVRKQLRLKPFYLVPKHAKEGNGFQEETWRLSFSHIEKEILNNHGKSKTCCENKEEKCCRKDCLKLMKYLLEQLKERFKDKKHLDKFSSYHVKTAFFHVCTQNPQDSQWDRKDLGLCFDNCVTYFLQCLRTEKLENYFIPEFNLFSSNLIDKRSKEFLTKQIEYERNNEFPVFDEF
Experiment: Quantification of cGAS protein inhibition (cGAMP formation measured by LC-MS/MS)
Format: biochemical
Conditions: reported for the potential mixture of co-existing tautomers and/or racemates
Description: A reagent buffer was prepared in filtered and autoclaved water according to the following: • 50 mM Tris-buffer pH 7.5 (1 M Tris-buffer pH 7.5, Invitrogen, Cat. No. 15567-027); • 50 mM NaCl (5 M NaCl, Sodium Chloride Solution, Sigma, 59222C-); • 5 mM MgCl2 (1 M MgCl2, Sigma, M1028); • 0.1 mM ZnCl2 (Zinc Chloride [7646-85-7], powder, Cell Culture Tested, Sigma, Z-0152); and • 0.001% Tween 20 (TWEEN 20, Sigma Aldrich, P1379-). […]
Quantity name: IC50 (nM)

1: COc1cc2c(-n3ccnc3)c(-c3nnc(C(=O)N(C)C)[nH]3)n(C)c2c(F)c1Cl
2: COCC(F)c1nnc(-c2[nH]c3c(Cl)c(Cl)ccc3c2-c2cn[nH]c2)[nH]1 (stereo not drawn)
3: Oc1c(Cl)ccc2c(-c3cn[nH]c3)c(-c3nnc(C(F)(F)F)[nH]3)[nH]c12
Please put the 3 compounds above in a list ordered by falling IC50. // rank by listing labels in the order requested
3, 2, 1
